biological target: PI3-kinase p110-alpha/p85-alpha (Homo sapiens); experiment: Inhibition of N-terminal His6-tagged recombinant full-length human p110alpha/untagged recombinant full length human p85alpha expressed in baculovirus infected Sf21 cells using phosphatidylinositol as substrate in presence of gamma-32P-ATP after 5 mins by thin layer chromatographic method
Sequence (P27986 whole entry): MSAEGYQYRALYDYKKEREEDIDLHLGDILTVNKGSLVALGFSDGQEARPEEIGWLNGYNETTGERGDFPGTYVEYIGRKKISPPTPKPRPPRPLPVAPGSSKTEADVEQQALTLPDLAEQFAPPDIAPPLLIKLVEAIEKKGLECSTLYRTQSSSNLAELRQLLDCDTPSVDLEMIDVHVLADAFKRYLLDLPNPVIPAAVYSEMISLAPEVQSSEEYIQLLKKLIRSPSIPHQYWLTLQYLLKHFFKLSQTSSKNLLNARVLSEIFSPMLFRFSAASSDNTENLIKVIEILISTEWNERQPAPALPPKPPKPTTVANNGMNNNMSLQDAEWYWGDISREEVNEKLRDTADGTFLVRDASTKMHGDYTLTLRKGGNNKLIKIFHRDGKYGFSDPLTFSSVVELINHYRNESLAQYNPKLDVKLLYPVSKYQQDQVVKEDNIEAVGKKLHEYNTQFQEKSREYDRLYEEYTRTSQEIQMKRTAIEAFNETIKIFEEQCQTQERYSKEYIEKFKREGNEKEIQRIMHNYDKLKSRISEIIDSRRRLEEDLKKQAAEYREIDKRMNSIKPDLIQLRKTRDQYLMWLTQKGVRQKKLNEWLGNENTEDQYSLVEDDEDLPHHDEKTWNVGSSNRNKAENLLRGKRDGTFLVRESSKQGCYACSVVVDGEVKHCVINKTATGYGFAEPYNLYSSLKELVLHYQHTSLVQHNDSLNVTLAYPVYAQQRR
Sequence (P42336 whole entry): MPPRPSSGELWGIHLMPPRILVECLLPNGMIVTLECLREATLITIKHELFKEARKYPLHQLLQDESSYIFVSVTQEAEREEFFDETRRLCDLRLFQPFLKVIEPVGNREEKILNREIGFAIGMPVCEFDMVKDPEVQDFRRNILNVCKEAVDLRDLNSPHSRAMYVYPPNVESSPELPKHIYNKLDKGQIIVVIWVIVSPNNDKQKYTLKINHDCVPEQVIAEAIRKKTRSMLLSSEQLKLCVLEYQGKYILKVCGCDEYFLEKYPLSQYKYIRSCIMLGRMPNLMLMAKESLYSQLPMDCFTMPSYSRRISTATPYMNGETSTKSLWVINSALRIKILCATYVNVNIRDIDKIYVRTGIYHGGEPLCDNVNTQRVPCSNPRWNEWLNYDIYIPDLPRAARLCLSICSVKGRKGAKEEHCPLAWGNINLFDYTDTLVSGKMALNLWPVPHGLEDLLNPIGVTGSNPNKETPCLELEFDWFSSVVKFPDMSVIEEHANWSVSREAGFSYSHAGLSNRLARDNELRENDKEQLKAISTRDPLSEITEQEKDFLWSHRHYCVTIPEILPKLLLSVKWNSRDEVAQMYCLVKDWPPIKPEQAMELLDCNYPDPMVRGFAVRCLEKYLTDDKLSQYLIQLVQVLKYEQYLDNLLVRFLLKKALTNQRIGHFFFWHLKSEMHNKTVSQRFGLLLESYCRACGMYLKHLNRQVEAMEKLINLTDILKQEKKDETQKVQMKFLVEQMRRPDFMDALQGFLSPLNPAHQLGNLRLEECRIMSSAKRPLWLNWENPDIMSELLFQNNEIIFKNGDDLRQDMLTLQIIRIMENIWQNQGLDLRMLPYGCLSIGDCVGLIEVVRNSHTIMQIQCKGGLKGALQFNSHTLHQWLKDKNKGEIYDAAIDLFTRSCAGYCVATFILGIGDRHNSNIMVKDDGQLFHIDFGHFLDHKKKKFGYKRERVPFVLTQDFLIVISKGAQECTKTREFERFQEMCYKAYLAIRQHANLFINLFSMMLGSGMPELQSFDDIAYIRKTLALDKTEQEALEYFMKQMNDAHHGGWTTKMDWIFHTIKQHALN
pIC50: −log10 of the molar value.
Each entry below carries its reported pIC50.
Quantity Kind: pIC50

[
  {
    "Mol": "Cc1cccc2cc(Cn3nc(-c4ccc(Cl)c(O)c4)c4c(N)ncnc43)n(-c3ccccc3F)c(=O)c12",
    "Reading": "< 5.00"
  },
  {
    "Mol": "CCc1ccccc1-n1c(Cn2nc(-c3cc(O)cc(F)c3)c3c(N)ncnc32)cc2cccc(C)c2c1=O",
    "Reading": "> 5.00"
  },
  {
    "Mol": "Cc1cccc2cc(Cn3nc(-c4cccc(O)c4)c4c(N)ncnc43)n(-c3ccccc3)c(=O)c12",
    "Reading": "< 5.00"
  },
  {
    "Mol": "Cc1ccccc1-n1c(Cn2nc(-c3cn[nH]c3)c3c(N)ncnc32)cc2cccc(C)c2c1=O",
    "Reading": "< 5.00"
  },
  {
    "Mol": "Cc1cccc2cc(Cn3nc(C#N)c4c(N)ncnc43)n(-c3ccccc3F)c(=O)c12",
    "Reading": "< 5.00"
  }
]

Ref: ChEMBL document CHEMBL3879901
